# Assay details: Cmax in monkey at 1 mg/kg, po
# Format: ADME, organism-based, Macaca mulatta
# Set-up: dose 1 mg/kg, route oral
# Experimental context: rhesus monkey, in vivo
Measured quantity: Cmax (ng/mL)

>>> readout_number("CCNC(=O)c1cc2c(-c3cc(C(C)(C)O)ccc3Oc3c(C)cc(F)cc3C)cn(C)c(=O)c2[nH]1")
5

====

# Assay details: Oral bioavailability in mouse at 1 mg/kg
# Assay type: ADME, organism-based
# Experimental context: in vivo
Measured quantity: bioavailability (%)

>>> readout_number("CCNC(=O)c1cc2c(-c3cc(C(C)(C)O)ccc3Oc3c(C)cc(F)cc3C)cn(C)c(=O)c2[nH]1 [ABBV-744]")
58
>>> readout_number("CCNC(=O)c1cc2c(-c3cc(S(=O)(=O)CC)ccc3Oc3c(C)cccc3C)cn(C)c(=O)c2[nH]1")
53
